Parameter Bliss excess: see the listing below.
Tested on: NCI-H1299 (Non-Small Cell Lung Carcinoma)
Assay: Bliss excess, mean over the matrix (fraction); higher = more synergy
Hey, just send me the number, nothing else.

Answered cases to consult:
molecule="Cc1c2c(nn1C)CSCc1cc(n(C)n1)CSc1cc(c3ccccc3c1)OCCCc1c(C(=O)O)n(C)c3c-2c(Cl)ccc13 [AZD5991] + C=CCn1c(=O)c2cnc(Nc3ccc(N4CCN(C)CC4)cc3)nc2n1-c1cccc(C(C)(C)O)n1 [AZD1775] (first compound max 1 µM, partner max 1 µM)" numeric_readout=-0.0048
molecule="COc1cc2c(cc1OCCCCCOc1cc3c(cc1OC)C(=O)N1C=C(C)C[C@H]1C=N3)N=C[C@@H]1CC(C)=CN1C2=O [SG3199] + O=C(c1cc(Cc2n[nH]c(=O)c3ccccc23)ccc1F)N1CCN(C(=O)C2CC2)CC1 [Olaparib] (first compound max 0.001 µM, 7x7, partner max 10 µM)" numeric_readout=-0.0381
molecule="CC1(C)CCC(CN2CCN(c3ccc(C(=O)NS(=O)(=O)c4ccc(NCC5CCOCC5)c([N+](=O)[O-])c4)c(Oc4cnc5[nH]ccc5c4)c3)CC2)=C(c2ccc(Cl)cc2)C1 [Venetoclax] + C[C@@H]1COCCN1C2=NC(=NC(=C2)C3(CC3)[S@](=N)(=O)C)C4=C5C=CNC5=NC=C4 [AZD6738] (first compound max 1 µM, 7x7, partner max 10 µM)" numeric_readout=-0.0203
molecule="Cc1c2c(nn1C)CSCc1cc(n(C)n1)CSc1cc(c3ccccc3c1)OCCCc1c(C(=O)O)n(C)c3c-2c(Cl)ccc13 [AZD5991] + C[C@@H]1COCCN1C2=NC(=NC(=C2)C3(CC3)[S@](=N)(=O)C)C4=C5C=CNC5=NC=C4 [AZD6738] (first compound max 1 µM, 7x7, partner max 10 µM)" numeric_readout=0.0159
molecule="CC1(C)CCC(CN2CCN(c3ccc(C(=O)NS(=O)(=O)c4ccc(NCC5CCOCC5)c([N+](=O)[O-])c4)c(Oc4cnc5[nH]ccc5c4)c3)CC2)=C(c2ccc(Cl)cc2)C1 [Venetoclax] + COc1cc(Nc2ncc3c(n2)-c2ccc(Cl)cc2C(c2c(F)cccc2OC)=NC3)ccc1C(=O)O [Alisertib] (first compound max 1 µM, 7x7, partner max 10 µM)" numeric_readout=0.0391
molecule="N#Cc1cnc(Nc2cc(NC[C@H]3CNCCO3)c(C(F)(F)F)cn2)cn1 [SRA737] + C=CCn1c(=O)c2cnc(Nc3ccc(N4CCN(C)CC4)cc3)nc2n1-c1cccc(C(C)(C)O)n1 [AZD1775] (first compound max 10 µM, partner max 1 µM)" numeric_readout=0.0448

# ---- query molecule ----
input: Answer with the recorded Bliss excess for the molecule listed here: C=CCn1c(=O)c2cnc(Nc3ccc(N4CCN(C)CC4)cc3)nc2n1-c1cccc(C(C)(C)O)n1 [AZD1775] + O=C(c1cc(Cc2n[nH]c(=O)c3ccccc23)ccc1F)N1CCN(C(=O)C2CC2)CC1 [Olaparib] (first compound max 1 µM, partner max 10 µM)
output: -0.0048

###

Test system: COR-L23 (Non-Small Cell Lung Carcinoma)
Test: combination Emax (second highest fraction inhibited in the dose matrix, 72 h); higher = more inhibition; extreme values may be limits of the assay
Parameter combination Emax: see the listing below.
Hey, just send me the number, nothing else.

compound="COc1nnc2ccc(N3CCC(c4ccc(OCCN5CCN(C)C(=O)[C@H]5C)cc4)CC3)nn12 [AZD5153] + CCN(CCO)CCCOc1ccc2c(Nc3cc(CC(=O)Nc4cccc(F)c4)[nH]n3)ncnc2c1 [AZD2811] (first compound max 1 µM, 7x7, partner max 1 µM)" numeric_readout=0.354

input: Answer with the recorded combination Emax for the compound listed here: COc1cccc(OCCCN)c1-c1cc(Nc2cnc(C#N)cn2)n[nH]1 [Prexasertib] + CCc1c2c(nc3ccc(O)cc13)-c1cc3c(c(=O)n1C2)COC(=O)[C@]3(O)CC [SN-38] (first compound max 1 µM, 7x7, partner max 0.3 µM)
output: 0.852

###

Parameter Bliss excess: see the listing below.
Test system: SW1783 (Low Grade Glioma)
Assay: Bliss excess, mean over the matrix (fraction); higher = more synergy
Hey, just send me the number, nothing else.

compound="NC1(C(=O)N[C@@H](CCO)c2ccc(Cl)cc2)CCN(c2ncnc3[nH]ccc23)CC1 [Capivasertib] + Cn1cnc2c(F)c(Nc3ccc(Br)cc3Cl)c(C(=O)NOCCO)cc21 [Selumetinib] (first compound max 10 µM, 7x7, partner max 10 µM)" numeric_readout=-0.0097

# ---- query compound ----
input: Answer with the recorded Bliss excess for the compound listed here: Cc1nc(Nc2ncc(C(=O)Nc3c(C)cccc3Cl)s2)cc(N2CCN(CCO)CC2)n1 [Dasatinib] + CC(=O)Nc1cccc(-n2c(=O)n(C3CC3)c(=O)c3c(Nc4ccc(I)cc4F)n(C)c(=O)c(C)c32)c1 [Trametinib] (first compound max 2 µM, 7x7, partner max 1 µM)
output: -0.0712

###

Parameter Bliss excess: see the listing below.
Tested on: CTV-1 (T-Lymphoblastic Leukemia)
Assay: Bliss excess, mean over the matrix (fraction); higher = more synergy
Hey, just send me the number, nothing else.

molecule="Cc1c2c(nn1C)CSCc1cc(n(C)n1)CSc1cc(c3ccccc3c1)OCCCc1c(C(=O)O)n(C)c3c-2c(Cl)ccc13 [AZD5991] + C[C@@H]1COCCN1C2=NC(=NC(=C2)C3(CC3)[S@](=N)(=O)C)C4=C5C=CNC5=NC=C4 [AZD6738] (first compound max 1 µM, 7x7, partner max 10 µM)" numeric_readout=0.0021

input: Please indicate recorded Bliss excess of CN(CCO)CC[C@H](CSc1ccccc1)Nc1ccc(S(=O)(=O)NC(=O)c2ccc(N3CCC([C@@H](O)c4ccccc4-c4ccc(Cl)cc4)CC3)cc2)cc1S(=O)(=O)C(F)(F)F [AZD4320] + CCN(CCO)CCCOc1ccc2c(Nc3cc(CC(=O)Nc4cccc(F)c4)[nH]n3)ncnc2c1 [AZD2811] (first compound max 1 µM, 7x7, partner max 1 µM) measured with CTV-1 (T-Lymphoblastic Leukemia).
output: 0.0053

###

Test system: NCI-H2369 (Mesothelioma)
Assay: Bliss excess, mean over the matrix (fraction); higher = more synergy
Please mark Yes if the recorded Bliss excess is equal to or greater than -0.05, and No if it falls below.

Consider the following illustrative entries.
compound="CC(=O)c1c(C)c2cnc(Nc3ccc(N4CCNCC4)cn3)nc2n(C2CCCC2)c1=O [Palbociclib] + CC1(C)CCC(CN2CCN(c3ccc(C(=O)NS(=O)(=O)c4ccc(NCC5CCOCC5)c([N+](=O)[O-])c4)c(Oc4cnc5[nH]ccc5c4)c3)CC2)=C(c2ccc(Cl)cc2)C1 [Venetoclax] (first compound max 10 µM, 7x7, partner max 1 µM)" assayed_target="NCI-H2369 (Mesothelioma)" class=No
compound="CC1(C)CCC(CN2CCN(c3ccc(C(=O)NS(=O)(=O)c4ccc(NCC5CCOCC5)c([N+](=O)[O-])c4)c(Oc4cnc5[nH]ccc5c4)c3)CC2)=C(c2ccc(Cl)cc2)C1 [Venetoclax] + CN(C)CCCOc1ccc(-c2ccc3ncc4c(c3c2)n(C2CCOCC2)c(=O)n4C)cn1 [AZD0156] (first compound max 1 µM, 7x7, partner max 1 µM)" assayed_target="NCI-H2369 (Mesothelioma)" class=Yes
compound="CN(CCO)CC[C@H](CSc1ccccc1)Nc1ccc(S(=O)(=O)NC(=O)c2ccc(N3CCC([C@@H](O)c4ccccc4-c4ccc(Cl)cc4)CC3)cc2)cc1S(=O)(=O)C(F)(F)F [AZD4320] + C[C@@H]1COCCN1C2=NC(=NC(=C2)C3(CC3)[S@](=N)(=O)C)C4=C5C=CNC5=NC=C4 [AZD6738] (first compound max 1 µM, 7x7, partner max 10 µM)" assayed_target="NCI-H2369 (Mesothelioma)" class=Yes
compound="COc1cc2ncnc(Nc3ccc(F)c(Cl)c3)c2cc1OCCCN1CCOCC1 [Gefitinib] + CC(C)n1c(=O)n(C)c2cnc3cc(F)c(-c4ccc(OCCCN5CCCCC5)nc4)cc3c21 [AZD1390] (first compound max 10 µM, 7x7, partner max 0.3 µM)" assayed_target="NCI-H2369 (Mesothelioma)" class=No
compound="NC1(C(=O)N[C@@H](CCO)c2ccc(Cl)cc2)CCN(c2ncnc3[nH]ccc23)CC1 [Capivasertib] + CCN(CCO)CCCOc1ccc2c(Nc3cc(CC(=O)Nc4cccc(F)c4)[nH]n3)ncnc2c1 [AZD2811] (first compound max 10 µM, 7x7, partner max 1 µM)" assayed_target="NCI-H2369 (Mesothelioma)" class=Yes

# evaluate next
input: Is the recorded value of Bliss excess equal to or greater than -0.05 for this compound? C=CCn1c(=O)c2cnc(Nc3ccc(N4CCN(C)CC4)cc3)nc2n1-c1cccc(C(C)(C)O)n1 [AZD1775] + C[C@@H]1COCCN1C2=NC(=NC(=C2)C3(CC3)[S@](=N)(=O)C)C4=C5C=CNC5=NC=C4 [AZD6738] (first compound max 1 µM, partner max 10 µM)
output: Yes
